Tested on: P. falciparum transgenic reporter strain NF54-HGL
ASSAY EXPLANATION: Standard membrane feeding assay (transmission blocking, oocysts in mosquito midgut)
Assay type: cell-based
RUN PARAMETERS: Plasmodium falciparum, NF54, read-out: IC50, transmission of P. falciparum from infected blood into mosquitos (number of oocysts in the mosquito midgut)
QUANTITY MEASURED: IC50 (nM)
Give a bare numeral; the unit nM is implied.

Find the recorded IC50 belonging to N#Cc1cc(NC(=O)[C@H]2c3ccccc3C(=O)N(CC(F)(F)F)[C@@H]2c2ccc(OC3CC3)nc2)ccc1F (single isomer, unassigned) and report it.
323

====

Some molecules, each annotated with its measured microsomal CLint at 1 μM.
ASSAY EXPLANATION: Microsomal intrinsic clearance, human liver microsomes
Format: in vitro ADME
RUN PARAMETERS: human liver microsomes (pooled), pH 7.4, 45 min, NADPH
Description: The compounds of the invention (1 μM) were incubated in suspension with human (rat or mouse) liver microsomes pooled from multiple donors (>10) and samples taken at 5 time points over the course of a 45 min experiment and analysed by LC MS/MS. […] The termination plates were centrifuged at 3,000 rpm for 20 min at 4° C. to precipitate the protein. […] From a plot of ln peak area ratio (compound peak area/internal standard peak area) against time, the gradient of the line is determined. […]

Here's what some known entries look like.
> print(dat)
                                   molecule  value.observed
1  N#Cc1cc(NC(=O)[C@H]2c3ccccc3C(=O)N(CC(F)(F)F)[C@@H]2c2ccc(OC3CC3)nc2)ccc1F (single isomer, unassigned)   < 3 µL/min/mg
2  N#Cc1cc(NC(=O)[C@H]2c3ccccc3C(=O)N(CC(F)(F)F)[C@@H]2c2ccc(C(F)(F)F)nc2)ccc1F     6 µL/min/mg
3  CC(C)Oc1ccc(C2C(C(=O)Nc3ccc(F)c(C#N)c3)c3ccccc3C(=O)N2CC(F)(F)F)cn1 (racemic)    13 µL/min/mg
4  N#Cc1cc(NC(=O)[C@H]2c3ccccc3C(=O)N(CC(F)(F)F)[C@@H]2c2ccc(C(F)F)nc2)ccc1F   < 3 µL/min/mg
5  N#Cc1cc(NC(=O)[C@H]2c3ccccc3C(=O)N(CC(F)(F)F)[C@@H]2c2ccc(OCC(F)(F)F)nc2)ccc1F   < 3 µL/min/mg
6  N#Cc1cc(NC(=O)[C@H]2c3ccccc3C(=O)N(CC(F)(F)F)[C@@H]2c2cnc(C(F)(F)F)nc2)ccc1F   < 3 µL/min/mg
7  N#Cc1cc(NC(=O)[C@H]2c3ccccc3C(=O)N(CC(F)(F)F)[C@@H]2c2cccnc2)ccc1F [(+) SJ-733, reference compound]   140 µL/min/mg
8  N#Cc1ccc([C@@H]2[C@@H](C(=O)Nc3ccc(F)c(C#N)c3)c3ccccc3C(=O)N2CC(F)(F)F)cn1   < 3 µL/min/mg

Now, please, on to the next molecule.
Find the recorded microsomal CLint at 1 μM belonging to N#Cc1cc(NC(=O)[C@H]2c3ccccc3C(=O)N(CC(F)(F)F)[C@@H]2c2ccc(OC(F)F)nc2)ccc1F and report it.
< 3 µL/min/mg

====

ASSAY EXPLANATION: Pharmacokinetic profile in dog (IV)
RUN PARAMETERS: in vivo, IV at dose 3 mg/kg, read-out: t½ (dog) (converted)
QUANTITY MEASURED: half-life

Find the recorded half-life belonging to N#Cc1cc(NC(=O)[C@H]2c3ccccc3C(=O)N(CC(F)(F)F)[C@@H]2c2cccnc2)ccc1F [(+) SJ-733, reference compound] and report it.
10 h
